Each recorded value in this set is attributed to paper PMC9352680.

- test target: T1, PUF4 RNA-binding domain (Saccharomyces cerevisiae, UniProt P25339 537-888)
- T1 sequence: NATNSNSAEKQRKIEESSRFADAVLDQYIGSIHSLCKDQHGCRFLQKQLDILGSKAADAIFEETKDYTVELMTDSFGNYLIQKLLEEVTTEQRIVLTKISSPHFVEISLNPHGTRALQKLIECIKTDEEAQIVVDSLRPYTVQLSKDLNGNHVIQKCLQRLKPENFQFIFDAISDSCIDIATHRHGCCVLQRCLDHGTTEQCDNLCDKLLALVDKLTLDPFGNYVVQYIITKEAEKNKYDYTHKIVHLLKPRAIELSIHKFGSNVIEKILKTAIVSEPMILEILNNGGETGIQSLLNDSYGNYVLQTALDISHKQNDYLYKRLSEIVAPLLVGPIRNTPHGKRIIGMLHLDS
- measurement notes: Mg; RNA-MaP; 20 mM Na-HEPES pH 7.4, 30 mM KOAc, 0.75 mM MgCl2, 0.1% Tween-20, 5% glycerol, 0.1 mg/mL BSA, 2 mM DTT; 25 C; 0.0125-409.6 nM protein
- experimental conditions: tags: N-His6-TEV cleaved; C-SNAP kept, Cy3B-labelled; label: tethered on chip by stalled RNA polymerase
measured quantity: Kd (nM)

binder="Ie_S2_P3E.2_K3.1_C3.2_H3.1_A3.1_[+5C]_F3.1_T3.2 (ssRNA) RNA: UUUGAUUAAUAUGAUAUCGUUCUUUCUCUUGUAUCAUAUAUUCUUUCUCGAUAUCAUAUUAAUCUUU" modifier_sign== assay_value=0.639
binder="Ic_S4_P5E.1_K5.1_C5.1_H5.1_A5.1_[A7C]_F5.1_[T8G]_[A10T]_T5.1 (ssRNA) RNA: UUUGACAACUGAUCGUUCUUUCUUGUAUUCGUUUUCUUUCUCGAUCAGUUGUCUUU" modifier_sign== assay_value=59.5
binder="Ic_S2_P5E.1_K5.1_C5.1_H5.1_A5.1_[T6G]_[A7C]_F5.1_T5.1 (ssRNA) RNA: UUUGAUUAAUAUGAUAUCGUUCUUUCUUGUAUGCUUAUUCUUUCUCGAUAUCAUAUUAAUCUUU" modifier_sign== assay_value=6.06
binder="ACAAACAAUAUAUAUUAAAACAAAC (ssRNA) [Id_ii_S3_P4E.3_K4.2_C4.2_[C-2A]_[T-1A]_H4.2_A4.1_F4.1_T4.2_[G10A]_[T11A]]" modifier_sign== assay_value=108
binder="Ic_S4_P5E.1_K5.1_C5.1_H5.1_A5.1_[T5A]_[T6C]_[A7T]_F5.1_[T8A]_[T9G]_[A10T]_T5.1 (ssRNA) RNA: UUUGACAACUGAUCGUUCUUUCUUGUAACUAGUUUCUUUCUCGAUCAGUUGUCUUU" modifier_sign== assay_value=586
binder="UCUCUUCAACACUUAUUACAUCUCUU (ssRNA) [Id_ii_S1_P5E.4_K5.3_C5.2_[T-1A]_H5.3_A5.1_F5.1_T5.2_[T11C]]" modifier_sign=> assay_value=2300
binder="UCUCUUUGUAUAGCUCUCUCUU (ssRNA) [Ic_S1_P5E.1_K5.1_C5.1_H5.1_A5.1_[T6A]_[A7G]_F5.1_[T8C]_[A10C]_T5.1]" modifier_sign== assay_value=111
binder="UCUCUUACACACUAUAGAUCUCUU (ssRNA) [Id_ii_S1_P3E.4_K3.3_C3.2_[C-2A]_[T-1C]_H3.3_A3.1_F3.1_T3.2_[T9G]]" modifier_sign=> assay_value=2300
binder="Id_ii_S2_P3E.3_K3.2_C3.2_[C-2T]_[T-1C]_H3.2_A3.1_F3.1_T3.2_[T9G]_[A10C] (ssRNA) RNA: UUUGAUUAAUAUGAUAUCGUUCUUUCUUCUAUAUAUAGCUUCUUUCUCGAUAUCAUAUUAAUCUUU" modifier_sign== assay_value=393
binder="Ic_S2_P4E.1_K4.1_C4.1_H4.1_A4.1_[A6C]_[T7A]_F4.1_T4.1 (ssRNA) RNA: UUUGAUUAAUAUGAUAUCGUUCUUUCUUGUAUCAUAUUCUUUCUCGAUAUCAUAUUAAUCUUU" modifier_sign== assay_value=0.595
binder="UCUCUUUGCAUACAUCUCUU (ssRNA) [Ib_S1_P3E.1_K3.1_C3.1_H3.1_[T3C]_A3.1_F3.1_[T7C]_T3.1]" modifier_sign=> assay_value=2300
binder="Id_ii_S2_P4E.4_K4.3_C4.2_[C-2G]_H4.3_A4.1_F4.1_T4.2_[G10T]_[T11A] (ssRNA) RNA: UUUGAUUAAUAUGAUAUCGUUCUUUCUGUACACUAUUAUAUUCUUUCUCGAUAUCAUAUUAAUCUUU" modifier_sign== assay_value=0.496
binder="Id_ii_S2_P3E.4_K3.3_C3.2_[C-2T]_[T-1C]_H3.3_A3.1_F3.1_T3.2_[T9C]_[A10T] (ssRNA) RNA: UUUGAUUAAUAUGAUAUCGUUCUUUCUUCACACUAUACUUUCUUUCUCGAUAUCAUAUUAAUCUUU" modifier_sign== assay_value=1260
binder="UCUCUUUGUAUAAAUCUCUU (ssRNA) [Ia_S1_P3E.1_K3.1_C3.1_H3.1_A3.1_F3.1_[T7A]_T3.1]" modifier_sign== assay_value=50.4
binder="Ic_S2_P4E.1_K4.1_C4.1_H4.1_A4.1_[A6C]_F4.1_[T8C]_[A9C]_T4.1 (ssRNA) RNA: UUUGAUUAAUAUGAUAUCGUUCUUUCUUGUAUCUCCUUCUUUCUCGAUAUCAUAUUAAUCUUU" modifier_sign== assay_value=28.4
binder="UCUCUUUCUGUAUAUACGUCUCUU (ssRNA) [Id_ii_S1_P3E.2_K3.1_C3.2_[C-2T]_[T-1C]_H3.1_A3.1_F3.1_T3.2_[T9C]_[A10G]]" modifier_sign== assay_value=17.9
binder="UCUCUUUGUAUUCUUUUCUCUU (ssRNA) [Ic_S1_P5E.1_K5.1_C5.1_H5.1_A5.1_[A7C]_F5.1_[A10T]_T5.1]" modifier_sign== assay_value=28.6
binder="UCUCUUCUUGUAUAUAUCUCUCUU (ssRNA) [Id_ii_S1_P3E.2_K3.1_C3.2_H3.1_A3.1_F3.1_T3.2_[A10C]]" modifier_sign== assay_value=6.72
binder="ACAAACCAUAUAUAUAAAACAAAC (ssRNA) [Id_ii_S3_P3E.3_K3.2_C3.2_[T-1A]_H3.2_A3.1_F3.1_T3.2_[T9A]]" modifier_sign== assay_value=1420
binder="UCUCUUUUUGUAUAUUAUUUCUCUU (ssRNA) [Id_ii_S1_P4E.2_K4.1_C4.2_[C-2T]_H4.1_A4.1_F4.1_T4.2_[G10T]]" modifier_sign== assay_value=0.679
binder="UCUCUUUGUAUCUUUAUCUCUU (ssRNA) [Ib_S1_P5E.1_K5.1_C5.1_H5.1_A5.1_[T6C]_[A7T]_F5.1_T5.1]" modifier_sign== assay_value=6.01
binder="UCUCUUUGUACUCUGUUCUCUU (ssRNA) [Ic_S1_P5E.1_K5.1_C5.1_H5.1_A5.1_[T5C]_[A7C]_F5.1_[T9G]_[A10T]_T5.1]" modifier_sign== assay_value=21.5
binder="Ic_S2_P4E.1_K4.1_C4.1_H4.1_A4.1_[T5C]_[A6T]_[T7C]_F4.1_[T8G]_[A9C]_T4.1 (ssRNA) RNA: UUUGAUUAAUAUGAUAUCGUUCUUUCUUGUACUCGCUUCUUUCUCGAUAUCAUAUUAAUCUUU" modifier_sign== assay_value=879
binder="Ic_S2_P4E.1_K4.1_C4.1_H4.1_A4.1_[A6T]_[T7C]_F4.1_[T8C]_[A9G]_T4.1 (ssRNA) RNA: UUUGAUUAAUAUGAUAUCGUUCUUUCUUGUAUUCCGUUCUUUCUCGAUAUCAUAUUAAUCUUU" modifier_sign== assay_value=168
